Biological target: SARS-CoV-2 Wuhan-Hu-1 RBD (SARS-CoV-2, Wuhan-Hu-1 (GenBank …, UniProt P0DTC2))
Assay: cell-based or functional assay
reported.endpoint: neutralisation IC50, Wuhan-Hu-1 pseudovirus (µg/mL)

>>> readout_number("JR215 (antibody, V domains shown) VH: QVQLVQSGAEVKKPGASVKVSCKASGYTFTGYYMHWVRQAPGQGLEWMGRINPNSGDTNFPQKFQGRVTMTRDTSISTAYMELSRLRSDDTAVYYCARDGVADFNYDYWGQGTLVTVSS VL: LTQPASVSGSPGQSITISCTGSSSDVGSYNLVSWYQQHPGKAPKLMIYEVSRRPSGVSNRFSGSKSGNTASLTISGLQAEDEADYYCCSYAGSSTWEVLFGGGTKLTVL")
0.0448

All figures here come from paper PMC9253517.
